The values you see were collected from ChEMBL document CHEMBL1154520.

Hi there, I'd appreciate the recorded half-life for every entry that follows.
- test-details: Chemical stability assessed as half life in PBS at pH 7.4 by HPLC
- Format: physicochemical
One number for each entry, in h.

{"compound": "CC[C@@]1(OC(=O)C(C)n2ccnc2)C(=O)OCc2c1cc1n(c2=O)Cc2cc3ccccc3nc2-1 (stereo partly specified)", "half-life (h)": 18}
{"compound": "CC[C@@]1(OC(=O)COc2cc(C(F)(F)F)ncn2)C(=O)OCc2c1cc1n(c2=O)Cc2cc3ccccc3nc2-1", "half-life (h)": 14}

Dear reader, for each entry below, please note its half-life.
1. CC[C@@]1(OC(=O)Cn2cncn2)C(=O)OCc2c1cc1n(c2=O)Cc2cc3ccccc3nc2-1
2. CC[C@@]1(OC(=O)C(C)n2ccnn2)C(=O)OCc2c1cc1n(c2=O)Cc2cc3ccccc3nc2-1 (stereo partly specified)
3. CC[C@@]1(OC(=O)Cn2ccnc2)C(=O)OCc2c1cc1n(c2=O)Cc2cc3ccccc3nc2-1
4. CC[C@@]1(OC(=O)Cn2ccnn2)C(=O)OCc2c1cc1n(c2=O)Cc2cc3ccccc3nc2-1

A)
1. 45
2. 13
3. 24
4. 24

Dear reader, for each entry below, please note its half-life.
1. CC[C@@]1(OC(=O)C(C)Oc2cc(C(F)(F)F)ncn2)C(=O)OCc2c1cc1n(c2=O)Cc2cc3ccccc3nc2-1 (stereo partly specified)
2. CC[C@@]1(OC(=O)C(C)n2cncn2)C(=O)OCc2c1cc1n(c2=O)Cc2cc3ccccc3nc2-1 (stereo partly specified)

A)
9
14

* * *

- System: HCT-8
- test-details: Antitumor activity against human HCT8 xenografted in BALB/c nu/nu mouse assessed as tumor inhibition rate at 20 mg/kg, ip q3d for 3 days
- Assay type: functional
- condition-parameters: HCT-8, ip, 72 h, route intraperitoneal
metric-name: inhibition in vivo at 20 mg/kg

# example entries with known answers
{"compound": "CC[C@@]1(OC(=O)Cn2ccnc2)C(=O)OCc2c1cc1n(c2=O)Cc2cc3ccccc3nc2-1", "metric-name": "inhibition in vivo at 20 mg/kg", "data-value": "46.2%"}
{"compound": "CC[C@@]1(OC(=O)C(C)n2cccn2)C(=O)OCc2c1cc1n(c2=O)Cc2cc3ccccc3nc2-1 (some centres undefined)", "metric-name": "inhibition in vivo at 20 mg/kg", "data-value": "92.9%"}

Dear reader, for each entry below, please note its inhibition in vivo at 20 mg/kg.
1. CC[C@@]1(OC(=O)COc2cc(C(F)(F)F)ncn2)C(=O)OCc2c1cc1n(c2=O)Cc2cc3ccccc3nc2-1
2. CC[C@@]1(OC(=O)Cn2cccn2)C(=O)OCc2c1cc1n(c2=O)Cc2cc3ccccc3nc2-1

A)
1: 49.3%; 2: 75.6%

* * *

- System: HCT-8
- test-details: Cytotoxicity against human HCT8 cells by MTT assay
- Assay type: functional, cell-based
metric-name: pIC50
Give bare numbers, as −log10 of the molar value.

{"compound": "CC[C@@]1(OC(=O)C[n+]2cccc(C(=O)O)c2)C(=O)OCc2c1cc1n(c2=O)Cc2cc3ccccc3nc2-1", "target-or-system": "HCT-8", "pIC50": 6.12}
{"compound": "CC[C@@]1(OC(=O)C(C)n2ccnc2)C(=O)OCc2c1cc1n(c2=O)Cc2cc3ccccc3nc2-1 (stereo partly drawn)", "target-or-system": "HCT-8", "pIC50": 6.23}
{"compound": "CC[C@@]1(OC(=O)Cn2ccnc2)C(=O)OCc2c1cc1n(c2=O)Cc2cc3ccccc3nc2-1", "target-or-system": "HCT-8", "pIC50": 6.22}
{"compound": "CC[C@@]1(O)C(=O)OCc2c1cc1n(c2=O)Cc2cc3c(CN(C)C)c(O)ccc3nc2-1", "target-or-system": "HCT-8", "pIC50": 5.44}

Dear reader, for each entry below, please note its pIC50.
1. CC[C@@]1(OC(=O)Cn2cccn2)C(=O)OCc2c1cc1n(c2=O)Cc2cc3ccccc3nc2-1
2. CC[C@@]1(OC(=O)CO)C(=O)OCc2c1cc1n(c2=O)Cc2cc3ccccc3nc2-1
3. CC[C@@]1(OC(=O)C(C)O)C(=O)OCc2c1cc1n(c2=O)Cc2cc3ccccc3nc2-1 (stereo partly drawn)

A)
1. 6.21
2. 5.52
3. 6.09
